Consider the following compounds; for each one, report its IC50.
Molecular target: Adenylate cyclase type 1 (Homo sapiens)
Assay: Inhibition of [125 I]6-IHPP-forskolin binding to adenylate cyclase 1
Sequence (Q08828 whole entry): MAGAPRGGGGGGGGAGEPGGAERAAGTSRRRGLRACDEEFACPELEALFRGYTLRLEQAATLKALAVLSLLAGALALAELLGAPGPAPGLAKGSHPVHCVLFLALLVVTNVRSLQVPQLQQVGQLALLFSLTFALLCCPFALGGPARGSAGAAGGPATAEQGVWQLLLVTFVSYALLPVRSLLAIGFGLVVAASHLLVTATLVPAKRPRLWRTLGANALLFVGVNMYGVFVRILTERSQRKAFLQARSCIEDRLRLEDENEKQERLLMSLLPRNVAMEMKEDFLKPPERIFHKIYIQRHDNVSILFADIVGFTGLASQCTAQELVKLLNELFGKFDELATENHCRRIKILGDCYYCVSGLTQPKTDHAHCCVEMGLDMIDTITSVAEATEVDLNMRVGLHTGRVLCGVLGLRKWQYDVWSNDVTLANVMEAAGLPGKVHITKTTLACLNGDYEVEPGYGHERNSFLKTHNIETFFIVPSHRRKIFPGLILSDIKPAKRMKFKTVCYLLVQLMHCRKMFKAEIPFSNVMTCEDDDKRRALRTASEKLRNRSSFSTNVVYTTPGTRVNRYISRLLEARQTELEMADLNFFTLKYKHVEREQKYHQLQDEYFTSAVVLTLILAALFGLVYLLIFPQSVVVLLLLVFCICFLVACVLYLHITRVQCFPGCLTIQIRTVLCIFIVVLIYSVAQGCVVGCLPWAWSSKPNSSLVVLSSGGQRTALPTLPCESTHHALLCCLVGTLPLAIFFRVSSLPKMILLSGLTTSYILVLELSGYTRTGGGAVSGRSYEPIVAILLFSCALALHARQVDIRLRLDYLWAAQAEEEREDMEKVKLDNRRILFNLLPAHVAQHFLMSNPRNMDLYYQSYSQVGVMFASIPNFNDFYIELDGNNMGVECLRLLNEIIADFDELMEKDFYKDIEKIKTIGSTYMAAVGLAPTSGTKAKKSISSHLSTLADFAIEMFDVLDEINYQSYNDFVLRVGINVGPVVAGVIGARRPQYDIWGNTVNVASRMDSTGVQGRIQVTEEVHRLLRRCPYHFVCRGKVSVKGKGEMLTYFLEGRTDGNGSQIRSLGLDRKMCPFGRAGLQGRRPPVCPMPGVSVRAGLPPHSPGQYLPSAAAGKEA

Field: example entries. Status: answers known.
* C=C[C@@]1(C)CC(=O)[C@]2(O)[C@@]3(C)[C@@H](O)CCC(C)(C)[C@@H]3[C@H](O)[C@H](OC(=O)NCCc3ccc(N)cc3)[C@@]2(C)O1 | < 150 nM
* C=C[C@@]1(C)CC(=O)[C@]2(O)[C@@]3(C)[C@@H](O)CCC(C)(C)[C@@H]3[C@H](O)[C@H](OC(=O)NCCN(C)C)[C@@]2(C)O1 | > 150 nM
* C=C[C@@]1(C)CC(=O)[C@]2(O)[C@@]3(C)[C@@H](O)CCC(C)(C)[C@@H]3[C@H](OC(=O)NCCc3ccc(N)cc3)[C@H](O)[C@@]2(C)O1 | > 150 nM
* C=C[C@@]1(C)CC(=O)[C@]2(O)[C@@]3(C)[C@@H](O)CCC(C)(C)[C@@H]3[C@H](OC(=O)NCCC(=O)OCC)[C@H](O)[C@@]2(C)O1 | > 150 nM
* C=C[C@@]1(C)CC(=O)[C@]2(O)[C@@]3(C)[C@@H](O)CCC(C)(C)[C@@H]3[C@H](OC(=O)NCCc3ccccc3)[C@H](O)[C@@]2(C)O1 | < 150 nM

# compound C=C[C@@]1(C)CC(=O)[C@]2(O)[C@@]3(C)[C@@H](O)CCC(C)(C)[C@@H]3[C@H](O)[C@H](OC(=O)NCC3CCCCC3)[C@@]2(C)O1 ; its IC50 = > 150 nM

====

Consider the following compounds; for each one, report its Activity.
Biological target: Adenylate cyclase type 1 (Homo sapiens)
Assay: Maximum stimulation activity measured with 100 uM forskolin mediated by adenylate cyclase 1
Format: functional
Sequence (Q08828 whole entry, looked up): as the sequence (Q08828 whole entry) above
Numbers only, in %.

Field: example entries. Status: answers known.
* C=C[C@@]1(C)CC(=O)[C@]2(O)[C@@]3(C)[C@@H](O)CCC(C)(C)[C@@H]3[C@H](O)[C@H](OC(C)=O)[C@@]2(C)O1 | 100
* C=C[C@@]1(C)CC(=O)[C@]2(O)[C@@]3(C)[C@@H](O)CCC(C)(C)[C@@H]3[C@H](OC(=O)NCCC(=O)OCC)[C@H](O)[C@@]2(C)O1 | 75

Activity value, target or system Adenylate cyclase type 1 (Homo sapiens), for C=C[C@@]1(C)CC(=O)[C@]2(O)[C@@]3(C)[C@@H](O)CCC(C)(C)[C@@H]3[C@H](O)[C@H](OC(=O)NCCc3ccccc3)[C@@]2(C)O1 : 75

====

Target: Adenylate cyclase type 1 (Homo sapiens)
Assay: Ability to activate the conversion of [32P] ATP to [32P]-cyclic AMP mediated by adenylate cyclase 1
Format: functional
pEC50: −log10 of the molar value.
MEASURED_ENDPOINT: pEC50

Field: example entries. Status: answers known.
• C=C[C@@]1(C)CC(=O)[C@]2(O)[C@@]3(C)[C@@H](O)CCC(C)(C)[C@@H]3[C@H](OC(=O)NCCc3ccccc3)[C@H](O)[C@@]2(C)O1 = > 5.70
• C=C[C@@]1(C)CC(=O)[C@]2(O)[C@@]3(C)[C@@H](O)CCC(C)(C)[C@@H]3[C@H](OC(=O)NCC3CCCCC3)[C@H](O)[C@@]2(C)O1 = > 5.70
• C=C[C@@]1(C)CC(=O)[C@]2(O)[C@@]3(C)[C@@H](O)CCC(C)(C)[C@@H]3[C@H](OC(=O)NCCN(C)C)[C@H](O)[C@@]2(C)O1 = < 5.70
• C=C[C@@]1(C)CC(=O)[C@]2(O)[C@@]3(C)[C@@H](O)CCC(C)(C)[C@@H]3[C@H](OC(=O)NCCC(=O)OCC)[C@H](O)[C@@]2(C)O1 = < 5.70
• C=C[C@@]1(C)CC(=O)[C@]2(O)[C@@]3(C)[C@@H](O)CCC(C)(C)[C@@H]3[C@H](OC(=O)NCCO)[C@H](OC(C)=O)[C@@]2(C)O1 = > 5.70

# compound C=C[C@@]1(C)CC(=O)[C@]2(O)[C@@]3(C)[C@@H](O)CCC(C)(C)[C@@H]3[C@H](OC(=O)NCCc3ccc(O)cc3)[C@H](O)[C@@]2(C)O1 ; its pEC50 = > 5.70

====

Biological target: UniProt:Q08828
Test: Inhibition of [125 I]6-IHPP-forskolin binding to adenylate cyclase 1
Consider the following compounds; for each one, report its IC50.
Answers are plain numbers, in nM.

Field: example entries. Status: answers known.
* C=C[C@@]1(C)CC(=O)[C@]2(O)[C@@]3(C)[C@@H](O)CCC(C)(C)[C@@H]3[C@H](OC(=O)NCCC(C)(C)C)[C@H](O)[C@@]2(C)O1 | 680
* C=C[C@@]1(C)CC(=O)[C@]2(O)[C@@]3(C)[C@@H](O)CCC(C)(C)[C@@H]3[C@H](OC(=O)NCCc3ccccc3)[C@H](O)[C@@]2(C)O1 | 65
* C=C[C@@]1(C)CC(=O)[C@]2(O)[C@@]3(C)[C@@H](O)CCC(C)(C)[C@@H]3[C@H](O)[C@H](OC(=O)NCCN)[C@@]2(C)O1 | 128
* C=C[C@@]1(C)CC(=O)[C@]2(O)[C@@]3(C)[C@@H](O)CCC(C)(C)[C@@H]3[C@H](O)[C@H](OC(=O)NCCc3ccc(N)cc3)[C@@]2(C)O1 | 64

Give one value of IC50 per listed compound.
1. C=C[C@@]1(C)CC(=O)[C@]2(O)[C@@]3(C)[C@@H](O)CCC(C)(C)[C@@H]3[C@H](OC(=O)NCCc3ccccn3)[C@H](O)[C@@]2(C)O1
2. C=C[C@@]1(C)CC(=O)[C@]2(O)[C@@]3(C)[C@@H](O)CCC(C)(C)[C@@H]3[C@H](O)[C@H](OC(C)=O)[C@@]2(C)O1

117
41

====

Target: Adenylate cyclase type 1 (Homo sapiens, UniProt Q08828)
Test: Conversion of [32P] ATP to [32P]-cyclic AMP mediated by adenylate cyclase 1
Assay type: functional
Conditions: read-out: EC50
Consider the following molecules; for each one, report its EC50.

Field: example entries. Status: answers known.
• C=C[C@@]1(C)CC(=O)[C@]2(O)[C@@]3(C)[C@@H](O)CCC(C)(C)[C@@H]3[C@H](O)[C@H](OC(=O)NCCC)[C@@]2(C)O1 = 1.3 µM
• C=C[C@@]1(C)CC(=O)[C@]2(O)[C@@]3(C)[C@@H](O)CCC(C)(C)[C@@H]3[C@H](O)[C@H](OC(=O)NCC3CCCCC3)[C@@]2(C)O1 = 6.4 µM
• C=C[C@@]1(C)CC(=O)[C@]2(O)[C@@]3(C)[C@@H](O)CCC(C)(C)[C@@H]3[C@H](OC(=O)NCC3CCCCC3)[C@H](O)[C@@]2(C)O1 = 1 µM

Give one value of EC50 per listed molecule.
1. C=C[C@@]1(C)CC(=O)[C@]2(O)[C@@]3(C)[C@@H](O)CCC(C)(C)[C@@H]3[C@H](OC(=O)NCCc3ccc(N)cc3)[C@H](OC(C)=O)[C@@]2(C)O1
2. C=C[C@@]1(C)CC(=O)[C@]2(O)[C@@]3(C)[C@@H](O)CCC(C)(C)[C@@H]3[C@H](OC(=O)NCCN3CCCCC3)[C@H](O)[C@@]2(C)O1
3. C=C[C@@]1(C)CC(=O)[C@]2(O)[C@@]3(C)[C@@H](O)CCC(C)(C)[C@@H]3[C@H](O)[C@H](OC(C)=O)[C@@]2(C)O1
4. C=C[C@@]1(C)CC(=O)[C@]2(O)[C@@]3(C)[C@@H](O)CCC(C)(C)[C@@H]3[C@H](O)[C@H](OC(=O)NCCc3ccc(O)cc3)[C@@]2(C)O1
5. C=C[C@@]1(C)CC(=O)[C@]2(O)[C@@]3(C)[C@@H](O)CCC(C)(C)[C@@H]3[C@H](OC(=O)NCCN(C)C)[C@H](OC(C)=O)[C@@]2(C)O1

["0.5 µM", "1.7 µM", "0.5 µM", "1.4 µM", "2 µM"]

====

Biological target: Adenylate cyclase type 1 (Homo sapiens)
Assay: Ability to activate the conversion of [32P] ATP to [32P]-cyclic AMP mediated by adenylate cyclase 1
Type: functional
pEC50: −log10 of the molar value.
Consider the following compounds; for each one, report its pEC50.

Field: example entries. Status: answers known.
• C=C[C@@]1(C)CC(=O)[C@]2(O)[C@@]3(C)[C@@H](O)CCC(C)(C)[C@@H]3[C@H](OC(=O)NCCN(C)C)[C@H](OC(C)=O)[C@@]2(C)O1 = > 5.70
• C=C[C@@]1(C)CC(=O)[C@]2(O)[C@@]3(C)[C@@H](O)CCC(C)(C)[C@@H]3[C@H](OC(=O)NCCC(=O)OCC)[C@H](OC(C)=O)[C@@]2(C)O1 = < 5.70

# compound C=C[C@@]1(C)CC(=O)[C@]2(O)[C@@]3(C)[C@@H](O)CCC(C)(C)[C@@H]3[C@H](OC(=O)NCCc3ccccc3)[C@H](OC(C)=O)[C@@]2(C)O1 ; its pEC50 = > 5.70
